Test: Cytotoxicity against human HeLa cells assessed as reduction in cell viability after 3 days by XTT assay
Type: cell-based
Reported CC50 at 72 h values for the following compounds.
Use µM as the unit, but write only the number.

Below are worked cases with known answers.
[[record]]
chemical_structure = "C1=C(/C=C\\c2cccnc2)COc2ccccc21"
test_readout = "CC50 at 72 h"
measured_result = 37.5

[[record]]
chemical_structure = "C1=C(/C=C/c2cccnc2)COc2ccccc21"
test_readout = "CC50 at 72 h"
measured_result = 75

[[record]]
chemical_structure = "O=c1c(/C=C\\c2cccnc2)coc2ccc(Cl)cc12"
test_readout = "CC50 at 72 h"
measured_result = 50


Here's the next entry for you.
Exam item: Look up and state reported CC50 at 72 h for Clc1ccc2c(c1)C=C(/C=C/c1ccncc1)CO2
Marked response: 75

* * *

Tested on: rhinovirus A1B
Assay: Antiviral activity against HRV 1B infected in human HeLa cells assessed as reduction in plaque number after 3 days by neutral red assay
Format: functional, organism-based, Human rhinovirus 1B
Conditions: Rhinovirus A, 72 h
Rule: measured IC50 below 4 µM gets 1; anything equal to or greater than 4 µM gets -1.

Solved entries (count: 8):
[[record]]
chemical_structure = "Clc1ccc2c(c1)C=C(/C=C/c1ccncc1)CO2"
class_name = -1

[[record]]
chemical_structure = "O=c1c(/C=C/c2ccncc2)coc2ccc(Cl)cc12"
class_name = -1

[[record]]
chemical_structure = "O=c1c(/C=C\\c2cccnc2)coc2ccccc12"
class_name = -1

[[record]]
chemical_structure = "Clc1ccc2c(c1)C=C(/C=C/c1ccccn1)CO2"
class_name = 1

[[record]]
chemical_structure = "O=c1c(/C=C/c2ccncc2)coc2ccccc12"
class_name = -1

[[record]]
chemical_structure = "Clc1ccc2c(c1)C=C(/C=C/c1cccnc1)CO2"
class_name = -1

[[record]]
chemical_structure = "O=c1c(/C=C/c2ccccn2)coc2ccccc12"
class_name = -1

[[record]]
chemical_structure = "O=c1c(/C=C\\c2cccnc2)coc2ccc(Cl)cc12"
class_name = -1


Exam item: Please indicate whether the reported IC50 of C1=C(/C=C/c2ccncc2)COc2ccccc21 is strictly below 4 µM.
Marked response: 1

Exam item: Please indicate whether the reported IC50 of C1=C(/C=C/c2cccnc2)COc2ccccc21 is strictly below 4 µM.
Marked response: -1

Exam item: Please indicate whether the reported IC50 of C1=C(/C=C/c2ccccn2)COc2ccccc21 is strictly below 4 µM.
Marked response: 1

Exam item: Please indicate whether the reported IC50 of C1=C(/C=C\c2cccnc2)COc2ccccc21 is strictly below 4 µM.
Marked response: 1

Exam item: Please indicate whether the reported IC50 of C1=C(/C=C\c2ccncc2)COc2ccccc21 is strictly below 4 µM.
Marked response: 1

Exam item: Please indicate whether the reported IC50 of O=c1c(/C=C/c2ccccn2)coc2ccc(Cl)cc12 is strictly below 4 µM.
Marked response: 1

* * *

Test: Cytotoxicity against human HeLa cells assessed as reduction in cell viability after 3 days by XTT assay
Assay type: cell-based
Conditions: read-out: MNCC
TEST READOUT: MNTC at 72 h (µM)
Use µM as the unit, but write only the number.

Exam item: Look up and state reported MNTC at 72 h for O=c1c(/C=C\c2cccnc2)coc2ccc(Cl)cc12
Marked response: 25

Exam item: Look up and state reported MNTC at 72 h for C1=C(/C=C\c2ccncc2)COc2ccccc21
Marked response: 25

Exam item: Look up and state reported MNTC at 72 h for Clc1ccc2c(c1)C=C(/C=C/c1cccnc1)CO2
Marked response: 25

Exam item: Look up and state reported MNTC at 72 h for C1=C(/C=C/c2cccnc2)COc2ccccc21
Marked response: 25

Exam item: Look up and state reported MNTC at 72 h for C1=C(/C=C/c2ccncc2)COc2ccccc21
Marked response: 50

Exam item: Look up and state reported MNTC at 72 h for Clc1ccc2c(c1)C=C(/C=C/c1ccncc1)CO2
Marked response: 50

Exam item: Look up and state reported MNTC at 72 h for C1=C(/C=C\c2cccnc2)COc2ccccc21
Marked response: 25

Exam item: Look up and state reported MNTC at 72 h for O=c1c(/C=C/c2ccncc2)coc2ccc(Cl)cc12
Marked response: 100

Recorded values, source ChEMBL document CHEMBL3102715.
